tested on: HeLa cells; test: Time-course dual luciferase assay of modified Firefly luciferase mRNA (Renilla control); format: cell-based; settings: HeLa cells; Fluc reporter; result in words
measurement name: Effect of cap/5′ UTR modification on protein production / translation

substance="construct 1: m7G cap; /5Phos/rArGrArGrArArUrArArArArA (SEQ ID NO: 2) (AGAGAAUAAAAA; m7G cap, 5' phosphate; modified_base 1 OTHER; 5'-phosphate modified nucleotide)" reported_result=A>G~C~U
substance="construct 2: m7G cap; /5Phos/rUrGrArGrArArUrArArArArA (SEQ ID NO: 3) (UGAGAAUAAAAA; m7G cap, 5' phosphate; modified_base 1 OTHER; 5'-phosphate modified nucleotide)" reported_result=A>G~C~U
